- System: 138582-337-R-J1-PDC spheroids with HUVEC/MSC, viability
- PROTOCOL DESCRIPTION: Anticancer human tumor 138582-337-R-J1-PDC patient-derived Merkel cell tumor cell line growth inhibition [IpAb]
- PARTICULARS: curve of first compound; second compound 1 µM
pIC50: −log10 of the molar value.
Mark t for reported pIC50 of 6 or greater; mark f for anything smaller.

## Task Hi, just wondering whether Cn1nccc1Nc1nccc(-c2ccn(C(CO)c3ccc(Cl)c(F)c3)c(=O)c2)n1 (stereo not drawn) + CCN1CCN(Cc2ccc(Nc3ncc(F)c(-c4cc(F)c5nc(C)n(C(C)C)c5c4)n3)nc2)CC1 shows pIC50 of 6 or higher.
## Result f

## Task One more compound: CC(C)(C)c1cnc(CSc2cnc(NC(=O)C3CCNCC3)s2)o1 + CCN1CCN(Cc2ccc(Nc3ncc(F)c(-c4cc(F)c5nc(C)n(C(C)C)c5c4)n3)nc2)CC1
## Result t

## Task One more compound: Cn1cnc2c(F)c(Nc3ccc(Br)cc3Cl)c(C(=O)NOCCO)cc21 + CC(C)NCC(C(=O)N1CCN(c2ncnc3c2C(C)CC3O)CC1)c1ccc(Cl)cc1
## Result t

## Task One more compound: COc1c(OCCCN2CCOCC2)ccc2c3n(c(=NC(=O)c4cnc(N)nc4)nc12)CCN3 + CC(C)NCC(C(=O)N1CCN(c2ncnc3c2C(C)CC3O)CC1)c1ccc(Cl)cc1
## Result t

## Task One more compound: COc1c(OCCCN2CCOCC2)ccc2c3n(c(=NC(=O)c4cnc(N)nc4)nc12)CCN3 + CCN1CCN(Cc2ccc(Nc3ncc(F)c(-c4cc(F)c5nc(C)n(C(C)C)c5c4)n3)nc2)CC1
## Result t

## Task One more compound: Cn1nccc1Nc1nccc(-c2ccn(C(CO)c3ccc(Cl)c(F)c3)c(=O)c2)n1 (stereo not drawn) + CC(C)NCC(C(=O)N1CCN(c2ncnc3c2C(C)CC3O)CC1)c1ccc(Cl)cc1
## Result f

## Task One more compound: CCCS(=O)(=O)Nc1ccc(F)c(C(=O)c2c[nH]c3ncc(-c4ccc(Cl)cc4)cc23)c1F + CCN1CCN(Cc2ccc(Nc3ncc(F)c(-c4cc(F)c5nc(C)n(C(C)C)c5c4)n3)nc2)CC1
## Result f

## Task One more compound: C=CC(=O)N1CCN(c2nc(=O)n(-c3c(C)ccnc3C(C)C)c3nc(-c4c(O)cccc4F)c(F)cc23)C(C)C1 (stereo not drawn) + CCN1CCN(Cc2ccc(Nc3ncc(F)c(-c4cc(F)c5nc(C)n(C(C)C)c5c4)n3)nc2)CC1
## Result f

## Task One more compound: CC1(C)CCC(CN2CCN(c3ccc(C(=O)NS(=O)(=O)c4ccc(NCC5CCOCC5)c([N+](=O)[O-])c4)c(Oc4cnc5[nH]ccc5c4)c3)CC2)=C(c2ccc(Cl)cc2)C1 + CC(C)NCC(C(=O)N1CCN(c2ncnc3c2C(C)CC3O)CC1)c1ccc(Cl)cc1
## Result f

---

I'd appreciate it if you could supply viability, T/C values for the items below.
- System: 138582-337-R-J1-PDC spheroids with HUVEC/MSC, viability
- PROTOCOL DESCRIPTION: Anticancer human tumor 138582-337-R-J1-PDC cell line growth inhibition [IpAb];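 also: spheroids exposed to compounds for seven days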;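 as to viability, T/C: 100% = DMSO vehicle control viability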
- PARTICULARS: second compound 1 µM; first compound 0.1 µM; stronger effect = lower value
Field: numeric (%). Do not append units.

## Task Return reported viability, T/C; argument: CC1(C)CCC(CN2CCN(c3ccc(C(=O)NS(=O)(=O)c4ccc(NCC5CCOCC5)c([N+](=O)[O-])c4)c(Oc4cnc5[nH]ccc5c4)c3)CC2)=C(c2ccc(Cl)cc2)C1 + CC(C)NCC(C(=O)N1CCN(c2ncnc3c2C(C)CC3O)CC1)c1ccc(Cl)cc1
## Result 63.5

## Task One more compound: Cc1nc(NC(=O)N2CCCC2C(N)=O)sc1-c1ccnc(C(C)(C)C(F)(F)F)c1 (centres undefined) + CC(C)NCC(C(=O)N1CCN(c2ncnc3c2C(C)CC3O)CC1)c1ccc(Cl)cc1
## Result 60.4

## Task One more compound: C=CCn1c(=O)c2cnc(Nc3ccc(N4CCN(C)CC4)cc3)nc2n1-c1cccc(C(C)(C)O)n1 + CC(C)NCC(C(=O)N1CCN(c2ncnc3c2C(C)CC3O)CC1)c1ccc(Cl)cc1
## Result 73.5

## Task One more compound: C=CC(=O)N1CCN(c2nc(=O)n(-c3c(C)ccnc3C(C)C)c3nc(-c4c(O)cccc4F)c(F)cc23)C(C)C1 (centres undefined) + CCN1CCN(Cc2ccc(Nc3ncc(F)c(-c4cc(F)c5nc(C)n(C(C)C)c5c4)n3)nc2)CC1
## Result 96.8

## Task One more compound: Cn1ncc(Cl)c1-c1cc(C(=O)NC(CN)Cc2cccc(F)c2)sc1Cl (centres undefined) + CCN1CCN(Cc2ccc(Nc3ncc(F)c(-c4cc(F)c5nc(C)n(C(C)C)c5c4)n3)nc2)CC1
## Result 95.3

## Task One more compound: CCCS(=O)(=O)Nc1ccc(F)c(C(=O)c2c[nH]c3ncc(-c4ccc(Cl)cc4)cc23)c1F + CC(C)NCC(C(=O)N1CCN(c2ncnc3c2C(C)CC3O)CC1)c1ccc(Cl)cc1
## Result 61.2

## Task One more compound: CC(C)n1nc(-c2ccc3oc(N)nc3c2)c2c(N)ncnc21 + CC(C)NCC(C(=O)N1CCN(c2ncnc3c2C(C)CC3O)CC1)c1ccc(Cl)cc1
## Result 22

## Task One more compound: CC1(C)CCC(CN2CCN(c3ccc(C(=O)NS(=O)(=O)c4ccc(NCC5CCOCC5)c([N+](=O)[O-])c4)c(Oc4cnc5[nH]ccc5c4)c3)CC2)=C(c2ccc(Cl)cc2)C1 + CCN1CCN(Cc2ccc(Nc3ncc(F)c(-c4cc(F)c5nc(C)n(C(C)C)c5c4)n3)nc2)CC1
## Result 86.3

## Task One more compound: CCCS(=O)(=O)Nc1ccc(F)c(C(=O)c2c[nH]c3ncc(-c4ccc(Cl)cc4)cc23)c1F + CCN1CCN(Cc2ccc(Nc3ncc(F)c(-c4cc(F)c5nc(C)n(C(C)C)c5c4)n3)nc2)CC1
## Result 93.8

---

I'd appreciate it if you could supply viability, T/C values for the items below.
- Tested on: 138582-337-R-J1-PDC spheroids with HUVEC/MSC, viability
- PROTOCOL DESCRIPTION: Anticancer human tumor 138582-337-R-J1-PDC cell line growth inhibition [IpAb];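 also: spheroids exposed to compounds for seven days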;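 as to viability, T/C: 100% = DMSO vehicle control viability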
- PARTICULARS: second compound 0.316 µM; first compound 0.01 µM; stronger effect = lower value
Field: numeric (%). Do not append units.

## Task Record lookup: for 138582-337-R-J1-PDC spheroids with HUVEC/MSC, viability, what viability, T/C belongs to CC(C)n1nc(-c2ccc3oc(N)nc3c2)c2c(N)ncnc21 + CCN1CCN(Cc2ccc(Nc3ncc(F)c(-c4cc(F)c5nc(C)n(C(C)C)c5c4)n3)nc2)CC1 ?
## Result 56.5

## Task One more molecule: Cn1ncnc1[C@H]1c2n[nH]c(=O)c3cc(F)cc(c23)N[C@@H]1c1ccc(F)cc1 + CCN1CCN(Cc2ccc(Nc3ncc(F)c(-c4cc(F)c5nc(C)n(C(C)C)c5c4)n3)nc2)CC1
## Result 80.3

## Task One more molecule: Cn1ncnc1[C@H]1c2n[nH]c(=O)c3cc(F)cc(c23)N[C@@H]1c1ccc(F)cc1 + CC(C)NCC(C(=O)N1CCN(c2ncnc3c2C(C)CC3O)CC1)c1ccc(Cl)cc1
## Result 70.9

## Task One more molecule: CC(C)n1nc(-c2ccc3oc(N)nc3c2)c2c(N)ncnc21 + CC(C)NCC(C(=O)N1CCN(c2ncnc3c2C(C)CC3O)CC1)c1ccc(Cl)cc1
## Result 44.1

## Task One more molecule: COc1c(OCCCN2CCOCC2)ccc2c3n(c(=NC(=O)c4cnc(N)nc4)nc12)CCN3 + CC(C)NCC(C(=O)N1CCN(c2ncnc3c2C(C)CC3O)CC1)c1ccc(Cl)cc1
## Result 63

## Task One more molecule: COc1c(OCCCN2CCOCC2)ccc2c3n(c(=NC(=O)c4cnc(N)nc4)nc12)CCN3 + CCN1CCN(Cc2ccc(Nc3ncc(F)c(-c4cc(F)c5nc(C)n(C(C)C)c5c4)n3)nc2)CC1
## Result 74.2

---

- System: 138582-337-R-J1-PDC spheroids with HUVEC/MSC, viability
- PROTOCOL DESCRIPTION: Anticancer human tumor 138582-337-R-J1-PDC cell line growth inhibition [IpAb];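 also: spheroids exposed to compounds for seven days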;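 as to viability, T/C: 100% = DMSO vehicle control viability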
- PARTICULARS: second compound 0.1 µM; first compound 0.000316 µM; stronger effect = lower value
MEASUREMENT NAME: viability, T/C (%)
Field: numeric (%). Do not append units.

## Task Record lookup: for 138582-337-R-J1-PDC spheroids with HUVEC/MSC, viability, what viability, T/C belongs to Cn1ncnc1[C@H]1c2n[nH]c(=O)c3cc(F)cc(c23)N[C@@H]1c1ccc(F)cc1 + CC(C)NCC(C(=O)N1CCN(c2ncnc3c2C(C)CC3O)CC1)c1ccc(Cl)cc1 ?
## Result 99.1

## Task One more molecule: Cn1ncnc1[C@H]1c2n[nH]c(=O)c3cc(F)cc(c23)N[C@@H]1c1ccc(F)cc1 + CCN1CCN(Cc2ccc(Nc3ncc(F)c(-c4cc(F)c5nc(C)n(C(C)C)c5c4)n3)nc2)CC1
## Result 89.7

## Task One more molecule: CC(C)n1nc(-c2ccc3oc(N)nc3c2)c2c(N)ncnc21 + CC(C)NCC(C(=O)N1CCN(c2ncnc3c2C(C)CC3O)CC1)c1ccc(Cl)cc1
## Result 96.3

## Task One more molecule: CC(C)n1nc(-c2ccc3oc(N)nc3c2)c2c(N)ncnc21 + CCN1CCN(Cc2ccc(Nc3ncc(F)c(-c4cc(F)c5nc(C)n(C(C)C)c5c4)n3)nc2)CC1
## Result 93.6
